What residual hCCL1 (100 nM) Gi2 response, protocol #2, mAb 0.08 µg/mL was measured for each of the following?
Molecular target: human CCR8 (human, UniProt P51685 1-355)
Test: cell-based or functional assay
Reply with just the number (in %).

Exercise: // lookup residual hCCL1 (100 nM) Gi2 response, protocol #2, mAb 0.08 µg/mL for anti-CCR8 mAb 1-3 (antibody, V domains shown, Murine hybridoma mAb) VH: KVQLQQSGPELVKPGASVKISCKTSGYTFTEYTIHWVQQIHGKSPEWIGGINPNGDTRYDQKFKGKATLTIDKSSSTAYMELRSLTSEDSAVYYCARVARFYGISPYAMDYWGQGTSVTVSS VL: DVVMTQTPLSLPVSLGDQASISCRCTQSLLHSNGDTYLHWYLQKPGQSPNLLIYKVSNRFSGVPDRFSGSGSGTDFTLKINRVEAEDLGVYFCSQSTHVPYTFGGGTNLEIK
Solution: 101

Exercise: // lookup residual hCCL1 (100 nM) Gi2 response, protocol #2, mAb 0.08 µg/mL for anti-CCR8 mAb 1-12 (antibody, V domains shown, Murine hybridoma mAb) VH: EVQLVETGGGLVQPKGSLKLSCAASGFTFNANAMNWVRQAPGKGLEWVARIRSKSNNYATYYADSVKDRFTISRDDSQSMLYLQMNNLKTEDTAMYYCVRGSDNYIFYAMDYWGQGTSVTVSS VL: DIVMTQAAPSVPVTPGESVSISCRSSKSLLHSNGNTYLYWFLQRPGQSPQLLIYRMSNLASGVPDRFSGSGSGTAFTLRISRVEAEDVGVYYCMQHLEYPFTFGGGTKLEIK
Solution: 99

Exercise: // lookup residual hCCL1 (100 nM) Gi2 response, protocol #2, mAb 0.08 µg/mL for anti-CCR8 mAb 1-24 (antibody, human IgG1, kappa, V domains shown, Humanized mAb, human IgG1 / kappa) VH: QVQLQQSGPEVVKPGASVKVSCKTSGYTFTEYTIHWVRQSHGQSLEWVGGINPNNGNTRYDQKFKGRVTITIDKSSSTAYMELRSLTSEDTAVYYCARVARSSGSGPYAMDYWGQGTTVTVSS VL: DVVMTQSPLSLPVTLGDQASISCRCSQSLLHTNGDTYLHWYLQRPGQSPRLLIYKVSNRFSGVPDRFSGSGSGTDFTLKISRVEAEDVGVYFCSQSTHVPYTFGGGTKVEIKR
Solution: 77
